Tested on: KRAS PDC multicell spheroid viability;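 also: spheroids exposed to compounds for 7 days; 100% = DMSO vehicle control viability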
Assay: Anticancer human tumor 825966-067-R-J1-PDC patient-derived colon carcinoma cell line growth inhibition [KRAS2]
Conditions: second compound 1 µM; first compound 0.000316 µM; stronger effect = lower value
Description: Multicellular complex tumor spheroid response to RAS pathway inhibitors in combination with a targeted agents in patient-derived cell lines with oncogenic KRAS variants from multiple cancer types A high-throughput screen of multi-cell type tumor spheroids was designed to identify active combinations of targeted small molecules and KRAS pathway inhibitors. […] Compounds. […] If the clinical Cmax for an agent had not been determined, the highest concentration tested was 10 microM. […]

{"molecule": "CC(=O)Nc1cccc(-n2c(=O)n(C3CC3)c(=O)c3c(Nc4ccc(I)cc4F)n(C)c(=O)c(C)c32)c1 + COc1cc2nc(C)nc(NC(C)c3cc(N)cc(C(F)(F)F)c3)c2cc1OC1CCOC1", "viability, T/C [%]": 103}
{"molecule": "CC(C)n1nc(-c2ccc3oc(N)nc3c2)c2c(N)ncnc21 + CC1OCC2(CCN(c3cnc(Sc4ccnc(N)c4Cl)c(N)n3)CC2)C1N", "viability, T/C [%]": 115}
{"molecule": "CC(C)n1nc(-c2ccc3oc(N)nc3c2)c2c(N)ncnc21 + C=CC(=O)N1CCN(c2nc(OCC3CCCN3C)nc3c2CCN(c2cccc4cccc(C)c24)C3)CC1CC#N", "viability, T/C [%]": 89.3}
{"molecule": "CN(C)C/C=C/C(=O)Nc1cc2c(Nc3ccc(F)c(Cl)c3)ncnc2cc1O[C@H]1CCOC1 + CNCc1ccccc1-c1csc(C(C)Nc2nc(C)nc3cc(OC)c(OC)cc23)c1", "viability, T/C [%]": 110}
{"molecule": "Cn1ncnc1[C@H]1c2n[nH]c(=O)c3cc(F)cc(c23)N[C@@H]1c1ccc(F)cc1 + CC1OCC2(CCN(c3cnc(Sc4ccnc(N)c4Cl)c(N)n3)CC2)C1N", "viability, T/C [%]": 87}
{"molecule": "Cn1ncnc1[C@H]1c2n[nH]c(=O)c3cc(F)cc(c23)N[C@@H]1c1ccc(F)cc1 + C=CC(=O)N1CCN(c2nc(=O)n(-c3c(C)ccnc3C(C)C)c3nc(-c4c(O)cccc4F)c(F)cc23)C(C)C1", "viability, T/C [%]": 100}
